Just for reference, BindingDB's records for doi:10.1021/cb200305u is where these values come from.

# measured-target: Aurora kinase C (Homo sapiens)
# Sequence (Q9UQB9 whole entry): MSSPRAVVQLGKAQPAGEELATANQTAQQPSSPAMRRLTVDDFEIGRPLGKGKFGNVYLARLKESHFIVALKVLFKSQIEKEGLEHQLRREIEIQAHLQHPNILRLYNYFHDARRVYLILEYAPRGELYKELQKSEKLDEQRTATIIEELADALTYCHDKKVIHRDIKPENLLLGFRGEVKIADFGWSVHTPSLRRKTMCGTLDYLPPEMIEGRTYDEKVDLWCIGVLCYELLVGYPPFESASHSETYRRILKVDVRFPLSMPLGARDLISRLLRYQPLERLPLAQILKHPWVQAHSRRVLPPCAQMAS
Hi! Just check whether IC50 is below 40 nM. Below gives t, equal or above gives f.

Hi there! Is IC50 for "CCN1CCN(Cc2ccc(Nc3ncc4c(n3)N(C)c3c(F)cccc3C(=O)N4C)cc2C(F)(F)F)CC1" below 40 nM, do you know? f

Hi there! Is IC50 for "CCN1CCN(C(=O)Cc2ccc(Nc3ncc(F)c(Nc4ccc(C(=O)Nc5ccccc5Cl)cc4)n3)cc2)CC1" below 40 nM, do you know? f

Hi there! Is IC50 for "CCN(CCCOc1ccc2c(Nc3cc(CC(=O)Nc4cccc(F)c4)n[nH]3)ncnc2c1)CCOP(=O)(O)O" below 40 nM, do you know? t

Hi there! Is IC50 for "CN1C(=O)c2ccccc2N(C)c2nc(Nc3ccc(N4CCC(O)CC4)cc3)ncc21" below 40 nM, do you know? t

----------
Here we list compounds with their recorded pIC50 when tested on Aurora kinase B (Homo sapiens, UniProt Q96GD4).
Sequence (Q96GD4 whole entry): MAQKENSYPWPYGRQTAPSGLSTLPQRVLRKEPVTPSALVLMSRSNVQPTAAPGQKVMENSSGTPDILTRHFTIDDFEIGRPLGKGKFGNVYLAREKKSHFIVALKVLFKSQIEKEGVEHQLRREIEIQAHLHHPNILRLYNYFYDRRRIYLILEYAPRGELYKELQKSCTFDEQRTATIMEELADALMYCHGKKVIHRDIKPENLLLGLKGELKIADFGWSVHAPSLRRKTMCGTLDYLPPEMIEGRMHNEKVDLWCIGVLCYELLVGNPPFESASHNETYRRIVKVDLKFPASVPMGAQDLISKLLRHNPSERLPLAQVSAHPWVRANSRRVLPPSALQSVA
pIC50 field: float, defined as -log10 of concentration (mol/L).

CCN1CCN(C(=O)Cc2ccc(Nc3ncc(F)c(Nc4ccc(C(=O)Nc5ccccc5Cl)cc4)n3)cc2)CC1 [Aurora Inhibitor, 35]    5.86
Cc1cc(Nc2ncc3c(n2)N(C)c2ccccc2C(=O)N3C)ccc1C(=O)N1CCN(C)CC1    7.84
CCN1CCN(Cc2ccc(Nc3ncc4c(n3)N(C)c3c(C)cccc3C(=O)N4C)cc2C(F)(F)F)CC1    6.88
CCN1CCN(Cc2ccc(Nc3ncc4c(n3)N(C)c3cc(C)ccc3C(=O)N4C)cc2C(F)(F)F)CC1    6.64

pIC50 on Aurora kinase B (Homo sapiens, UniProt Q96GD4) for "CCN1CCN(C(=O)Cc2ccc(Nc3ncc4c(n3)N(C)c3ccccc3C(=O)N4C)cc2)CC1" is 7.73

pIC50 on Aurora kinase B (Homo sapiens, UniProt Q96GD4) for "CN1C(=O)c2ccccc2N(C)c2nc(Nc3ccc(S(N)(=O)=O)cc3)ncc21" is 8.08

----------
# measured-target: Aurora kinase B (Homo sapiens, UniProt Q96GD4)
Hi! Just check whether IC50 is below 40 nM. Below gives Met, equal or above gives Not met.

Some solved cases for reference:
CN1c2ccccc2C(=O)Nc2cnc(Nc3ccc(N4CCC(O)CC4)cc3)nc21    Not met
CN1CCN(Cc2cccc(Nc3ncc4c(n3)N(C)c3ccccc3C(=O)N4C)c2)CC1    Met
COc1cc(Nc2ncc3c(n2)N(C)c2ccccc2C(=O)N3C)ccc1C(=O)N1CCN(O)CC1    Met

Okay, now this compound:
Hi there! Is IC50 for "CN1CCN(C(=O)c2ccc(Nc3ncc4c(n3)N(C)c3ccccc3C(=O)N4C)cc2C(F)(F)F)CC1" below 40 nM, do you know? Not met
